Collected inhibition at 100 µM values appear next to each entry.
- Test system: SW480
- ASSAY: Antiproliferative activity against human SW480 cells assessed as reduction in cell growth at 100 uM incubated for 72 hrs by trypan blue assay relative to control
- Type: functional

[[record]]
compound = "OCCc1ccc(O)c(O)c1 [HYDROXYTYROSOL]"
value_observed = "38%"


Param item = OCCc1ccc(O)cc1 ; retrieve measured inhibition at 100 µM.
12%

Param item = COc1cc(CCO)ccc1O ; retrieve measured inhibition at 100 µM.
12%

Param item = COc1cc(CCOP(=O)([O-])OCCc2ccc(O)c(O)c2)ccc1O.[Na+] ; retrieve measured inhibition at 100 µM.
15%

Param item = O=P([O-])(OCCc1ccc(O)c(O)c1)OCCc1ccc(O)c(O)c1.[Na+] ; retrieve measured inhibition at 100 µM.
25%

This collection of values is drawn from ChEMBL document CHEMBL4811302.
